Each item that follows carries a reported inhibition at 10 µM.
systemUnderTest: PDGFR-beta (Homo sapiens, UniProt P09619)
Sequence (P09619 33-1106, species assumed): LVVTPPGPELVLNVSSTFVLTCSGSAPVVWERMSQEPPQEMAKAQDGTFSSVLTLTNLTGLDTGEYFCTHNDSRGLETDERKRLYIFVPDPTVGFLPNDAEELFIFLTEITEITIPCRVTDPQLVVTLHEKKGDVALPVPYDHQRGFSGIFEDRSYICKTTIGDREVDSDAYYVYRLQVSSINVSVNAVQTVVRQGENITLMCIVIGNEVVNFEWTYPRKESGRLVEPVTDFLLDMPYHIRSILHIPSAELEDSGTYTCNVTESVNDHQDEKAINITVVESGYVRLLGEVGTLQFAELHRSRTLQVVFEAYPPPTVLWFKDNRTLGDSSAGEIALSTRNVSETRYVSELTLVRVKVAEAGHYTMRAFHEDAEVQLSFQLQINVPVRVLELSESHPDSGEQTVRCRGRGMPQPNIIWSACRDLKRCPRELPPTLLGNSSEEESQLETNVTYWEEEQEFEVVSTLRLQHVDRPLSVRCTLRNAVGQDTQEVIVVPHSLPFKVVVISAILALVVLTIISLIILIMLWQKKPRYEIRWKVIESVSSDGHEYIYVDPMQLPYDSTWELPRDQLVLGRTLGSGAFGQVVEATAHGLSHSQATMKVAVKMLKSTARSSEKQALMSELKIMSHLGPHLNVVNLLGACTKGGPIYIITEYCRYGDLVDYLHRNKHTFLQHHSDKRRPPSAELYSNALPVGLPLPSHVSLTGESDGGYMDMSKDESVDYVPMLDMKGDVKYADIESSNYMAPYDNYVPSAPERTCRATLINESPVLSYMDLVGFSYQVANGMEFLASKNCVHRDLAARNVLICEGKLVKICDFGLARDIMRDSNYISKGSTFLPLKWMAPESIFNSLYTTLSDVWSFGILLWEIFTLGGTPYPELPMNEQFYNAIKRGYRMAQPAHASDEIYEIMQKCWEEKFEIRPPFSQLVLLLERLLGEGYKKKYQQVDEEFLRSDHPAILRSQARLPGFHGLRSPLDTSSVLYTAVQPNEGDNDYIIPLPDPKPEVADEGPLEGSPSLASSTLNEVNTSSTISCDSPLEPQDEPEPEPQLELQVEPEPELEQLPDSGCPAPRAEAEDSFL
experimentalDetails: PDGFR-beta kinase assay
Assay type: biochemical
conditionInfo: 10 μM compound; read-out: PDGFR-beta percent of inhibition

{"columns": ["smilesStructure", "systemUnderTest", "inhibition at 10 µM"],
 "data": [
  ["Brc1cccc(Nc2nc(C3CC3)nc3sc4ccccc4c23)c1", "PDGFR-beta (Homo sapiens, UniProt P09619)", "0%"],
  ["Nc1cccc(Nc2nc(C3CC3)nc3sc4c(c23)CCCC4)c1", "PDGFR-beta (Homo sapiens, UniProt P09619)", "-11%"],
  ["N#Cc1cccc(Nc2nc(C3CC3)nc3sc4c(c23)CCCC4)c1", "PDGFR-beta (Homo sapiens, UniProt P09619)", "-4%"],
  ["Nc1ccc(Nc2ncnc3sc4c(c23)CCCC4)cc1", "PDGFR-beta (Homo sapiens, UniProt P09619)", "6%"],
  ["Fc1ccccc1Nc1ncnc2sc3c(c12)CCCC3", "PDGFR-beta (Homo sapiens, UniProt P09619)", "4%"],
  ["Clc1cccc(Nc2ncnc3sc4ccccc4c23)c1", "PDGFR-beta (Homo sapiens, UniProt P09619)", "-8%"],
  ["COc1cccc(Nc2nc(C3CC3)nc3sc4ccccc4c23)c1", "PDGFR-beta (Homo sapiens, UniProt P09619)", "-1%"],
  ["Oc1cccc(Nc2nc(C3CC3)nc3sc4ccccc4c23)c1", "PDGFR-beta (Homo sapiens, UniProt P09619)", "-1%"],
  ["Brc1cccc(Nc2ncnc3sc4c(c23)CCCC4)c1", "PDGFR-beta (Homo sapiens, UniProt P09619)", "1%"],
  ["Fc1cccc(Nc2nc(C3CC3)nc3sc4ccccc4c23)c1", "PDGFR-beta (Homo sapiens, UniProt P09619)", "-3%"]
]}

---

systemUnderTest: UniProt P06213
Sequence (P06213 28-1382, species assumed): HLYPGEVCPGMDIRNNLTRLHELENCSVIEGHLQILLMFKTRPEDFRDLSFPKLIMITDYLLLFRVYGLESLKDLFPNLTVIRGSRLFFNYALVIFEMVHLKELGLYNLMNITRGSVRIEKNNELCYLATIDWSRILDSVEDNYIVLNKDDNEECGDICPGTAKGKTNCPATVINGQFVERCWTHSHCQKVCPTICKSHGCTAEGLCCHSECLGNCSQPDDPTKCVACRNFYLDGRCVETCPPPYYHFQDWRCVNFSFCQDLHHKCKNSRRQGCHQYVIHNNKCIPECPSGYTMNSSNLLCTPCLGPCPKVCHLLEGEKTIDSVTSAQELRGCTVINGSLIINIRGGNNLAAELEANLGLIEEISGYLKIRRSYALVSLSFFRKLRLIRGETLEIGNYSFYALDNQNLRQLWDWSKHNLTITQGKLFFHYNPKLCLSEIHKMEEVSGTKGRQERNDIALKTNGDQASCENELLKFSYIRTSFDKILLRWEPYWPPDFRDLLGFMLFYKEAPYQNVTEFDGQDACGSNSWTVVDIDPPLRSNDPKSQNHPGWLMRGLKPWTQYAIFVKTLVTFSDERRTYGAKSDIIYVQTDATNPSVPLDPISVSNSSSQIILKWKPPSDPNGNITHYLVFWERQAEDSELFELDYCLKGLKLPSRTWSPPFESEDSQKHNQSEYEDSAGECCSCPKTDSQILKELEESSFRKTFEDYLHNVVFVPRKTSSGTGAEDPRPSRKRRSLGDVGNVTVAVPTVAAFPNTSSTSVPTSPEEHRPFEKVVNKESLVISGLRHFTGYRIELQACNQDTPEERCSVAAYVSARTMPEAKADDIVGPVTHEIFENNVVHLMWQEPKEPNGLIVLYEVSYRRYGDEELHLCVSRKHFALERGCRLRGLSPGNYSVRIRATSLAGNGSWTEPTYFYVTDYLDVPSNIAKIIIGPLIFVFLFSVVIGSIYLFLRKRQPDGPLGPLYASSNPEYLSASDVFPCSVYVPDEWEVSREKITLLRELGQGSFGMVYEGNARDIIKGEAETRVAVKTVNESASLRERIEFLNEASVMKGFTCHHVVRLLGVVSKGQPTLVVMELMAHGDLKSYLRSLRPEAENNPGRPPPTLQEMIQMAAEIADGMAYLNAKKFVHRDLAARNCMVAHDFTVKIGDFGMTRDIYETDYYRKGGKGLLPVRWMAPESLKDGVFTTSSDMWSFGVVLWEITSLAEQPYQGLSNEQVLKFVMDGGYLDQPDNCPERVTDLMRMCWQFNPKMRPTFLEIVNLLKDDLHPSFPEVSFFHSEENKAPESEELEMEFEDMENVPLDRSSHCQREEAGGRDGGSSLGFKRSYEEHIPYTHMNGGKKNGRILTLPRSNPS
experimentalDetails: InsR kinase assay
Type: biochemical
conditionInfo: 10 μM compound; read-out: InsR percent of inhibition
readoutKind: inhibition at 10 µM (%)

{"columns": ["compound", "systemUnderTest", "measurement"],
 "data": [
  ["Fc1cccc(Nc2ncnc3sc4ccccc4c23)c1 [Compound 21]", "UniProt P06213", 7],
  ["Brc1cccc(Nc2ncnc3sc4c(c23)CCCC4)c1 [Compound 3]", "UniProt P06213", -9],
  ["Fc1ccccc1Nc1ncnc2sc3c(c12)CCCC3 [Compound 1]", "UniProt P06213", -7],
  ["Fc1ccc(Nc2ncnc3sc4c(c23)CCCC4)cc1 [Compound 6]", "UniProt P06213", 44],
  ["Clc1cccc(Nc2ncnc3sc4ccccc4c23)c1 [Compound 22]", "UniProt P06213", 18],
  ["Oc1cccc(Nc2nc(C3CC3)nc3sc4c(c23)CCCC4)c1 [Compound 10]", "UniProt P06213", 2],
  ["N#Cc1cccc(Nc2nc(C3CC3)nc3sc4c(c23)CCCC4)c1 [Compound 14]", "UniProt P06213", -3],
  ["COc1cccc(Nc2nc(C3CC3)nc3sc4c(c23)CCCC4)c1 [Compound 15]", "UniProt P06213", 23],
  ["O=[N+]([O-])c1cccc(Nc2nc(C3CC3)nc3sc4c(c23)CCCC4)c1 [Compound 13]", "UniProt P06213", 9],
  ["Clc1ccc(Nc2ncnc3sc4c(c23)CCCC4)cc1 [Compound 7]", "UniProt P06213", -16]
]}
